Every entry's value here was drawn from ChEMBL document CHEMBL1127308.

- subject of test: Neutrophil elastase (Homo sapiens)
- Sequence (P08246 whole entry): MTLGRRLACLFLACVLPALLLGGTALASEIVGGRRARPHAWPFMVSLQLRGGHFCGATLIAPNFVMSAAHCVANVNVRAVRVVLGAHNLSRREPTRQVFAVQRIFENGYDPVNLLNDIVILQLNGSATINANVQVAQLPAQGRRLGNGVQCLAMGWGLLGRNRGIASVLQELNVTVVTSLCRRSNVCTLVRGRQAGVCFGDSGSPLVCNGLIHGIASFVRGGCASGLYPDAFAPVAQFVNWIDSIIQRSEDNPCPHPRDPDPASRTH
- assay protocol: In vitro inhibitory activity against human neutrophil elastase […]
- Parameters: dose 50 mg/kg
Please respond with reported pKi for every item in the list.
Numbers only, as −log10 of the molar value.

Guide cases for pKi, answers given:
- molecule: "CC(C)C(NC(=O)[C@@H]1CCCN1C(=O)[C@@H](NC(=O)N1CCOCC1)C(C)C)C(=O)C(F)(F)C(F)(F)F (stereo not given in full)"
  subject of test: "Neutrophil elastase (Homo sapiens)"
  pKi: 6.77
- molecule: "CC(C)C(NC(=O)[C@@H]1CCCN1C(=O)[C@@H](NC(=O)c1ccc(C(=O)N2CCOCC2)cc1)C(C)C)C(=O)C(F)(F)C(F)(F)F (stereo not given in full)"
  subject of test: "Neutrophil elastase (Homo sapiens)"
  pKi: 7.60
- molecule: "CC(C)[C@H](NC(=O)CN1CCOCC1)C(=O)N1CCC[C@H]1C(=O)N[C@H](C(=O)C(F)(F)C(F)(F)F)C(C)C"
  subject of test: "Neutrophil elastase (Homo sapiens)"
  pKi: 7.22

I would be grateful if you could provide pKi for each of the following entries.
1. CC(C)C(NC(=O)[C@@H]1CCCN1C(=O)[C@@H](NC(=O)c1ccc(NC(=O)N2CCOCC2)cc1)C(C)C)C(=O)C(F)(F)C(F)(F)F (stereo not given in full)
2. CC(C)C(NC(=O)[C@@H]1CCCN1C(=O)[C@@H](NC(=O)C1CCOCC1)C(C)C)C(=O)C(F)(F)C(F)(F)F (stereo not given in full)

7.37
7.23
